biological target: human OT7T175 (metastin receptor) (human, UniProt Q969F8 1-398); assay: cell-based or functional assay
Sequence (Q969F8 whole entry L364H): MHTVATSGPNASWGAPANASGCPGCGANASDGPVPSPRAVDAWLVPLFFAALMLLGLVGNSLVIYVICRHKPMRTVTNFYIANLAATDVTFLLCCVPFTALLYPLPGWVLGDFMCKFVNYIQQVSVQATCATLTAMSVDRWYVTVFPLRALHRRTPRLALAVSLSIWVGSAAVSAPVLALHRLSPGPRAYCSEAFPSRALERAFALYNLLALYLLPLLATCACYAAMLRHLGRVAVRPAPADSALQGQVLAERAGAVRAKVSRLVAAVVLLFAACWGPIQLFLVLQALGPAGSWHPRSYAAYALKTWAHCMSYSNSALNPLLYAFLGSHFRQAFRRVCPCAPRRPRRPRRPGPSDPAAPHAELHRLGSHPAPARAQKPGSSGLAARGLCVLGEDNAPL
Non-standard residues stand in square brackets, D forms with d. No end group written: not given here. *: point of attachment. Propanoyl(3-(3-pyridyl)) = O=C(CCc1cccnc1)*; Arg(Me) = CNC(=N)NCCC[C@H](N)C(=O)O; azaGly = NNC(=O)O
Quantity measured: Ca ion level-increasing activity (FLIPR)

// query Report measured Ca ion level-increasing activity (FLIPR); entry is YNWNSFGLXF (Nar9; C-terminal amide, also called Compound No. 310) [[Nar9]MS10]
// result 3 x Metastin (1-54)

// query Give reported Ca ion level-increasing activity (FLIPR) value for [dY][dN]WNTF[azaGly]L[Arg(Me)]F-NH2 (N-terminus assumed; SMILES CNC(=N)NCCC[C@H](NC(=O)[C@H](CC(C)C)NC(=O)NNC(=O)[C@H](Cc1ccccc1)NC(=O)[C@@H](NC(=O)[C@H](CC(N)=O)NC(=O)[C@H](Cc1c[nH]c2ccccc12)NC(=O)[C@@H](CC(N)=O)NC(=O)[C@H](N)Cc1ccc(O)cc1)[C@@H](C)O)C(=O)N[C@@H](Cc1ccccc1)C(N)=O, also called Compound No. 298) [[D-Tyr1,D-Asn2,Thr5,AzaGly7,Arg(Me)9]MS10]
// result 5 x Metastin (1-54)

// query Determine its reported Ca ion level-increasing activity (FLIPR): {Propanoyl(3-(3-pyridyl))}-NSF[azaGly]L[Arg(Me)]F-NH2 (SMILES CNC(=N)NCCC[C@H](NC(=O)[C@H](CC(C)C)NC(=O)NNC(=O)[C@H](Cc1ccccc1)NC(=O)[C@H](CO)NC(=O)[C@H](CC(N)=O)NC(=O)CCc1cccnc1)C(=O)N[C@@H](Cc1ccccc1)C(N)=O, also called Compound No. 322) [des(1-3)-3-(3-Pyridyl)propionyl-[AzaGly7,Arg(Me)9]MS10]
// result 1 x Metastin (1-54)
